molecular target: BsCspB (cold shock protein B) (UniProt P32081 1-67); assay: intrinsic Trp fluorescence quenching; 300 g/L ethylene glycol; 20 mM disodium phosphate pH 7.0, no added salt stated; fluorescence titration 298 K (0.5, 2.8 or 4 uM protein; table marks a/b not explained in the material); stopped-flow 288 K (60 or 300 nM protein); NMR 298 or 294.4 K with 5% D2O; conditions: protein: recombinant; single strand
Sequence (P32081 whole entry): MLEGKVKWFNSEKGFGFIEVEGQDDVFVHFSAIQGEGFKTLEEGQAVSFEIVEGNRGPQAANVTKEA
READOUT KIND: Kd (µM)
Kindly provide the numeric value in µM only, without the unit symbol.

The binder identified as TTTTT (ssDNA) [dT5] registered its Kd at 5.1
